B1: SETD8 (parent)
chain: GKQAPRKKAQGKTQQNRKLTDFYP

Variants of: B1
Assay summary: protein stability index of a GFP-peptide fusion (GPS, HEK-293T) (PSI 1-6); higher = more stable;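 also: lentivirally expressed fusions sorted by FACS into six bins by GFP to DsRed ratio, PSI derived from sequencing read proportions per bin multiplied by bin number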
Reported conditions: c terminus: a fixed tail appended
Value kind: protein stability index

Variant spec	Endpoint result
D21A	3.03
N16I	3.13
A9H	2.6
G11E	3.42
L19N	4.73
K18N	4.19
K12T	3.32
P5E	3.58
G1R	2.94
D21P	3.83
K8A	3.52
F22E	4.61
G11H	3.56
K2Q	3.4
G11K	2.91
Q15N	3.07
